Taken from ChEMBL document CHEMBL4296182.

# Test system: Staphylococcus aureus
# experiment: Antibacterial activity against Staphylococcus aureus MRSA ATCC 43300 (CO-ADD:GP_020); MIC in CAMBH media using NBS plates, by Resazurin F(560/590)
# Format: functional
# experimental.conditions: Concentration 20 uM, ASSAY_TEST Inhibition of Bacterial Growth, detection method Resazurin, Fluorescence (ex560/em590), MEDIA CAMHB, plate type 384well, CORNING #3640, time 18 hr

# compound, Inhibition
data = [
    ("N=C(N)Nc1ccc(NC(=N)N)cc1", "18.17%"),
    ("COC(=O)CC1(C(=O)OC)Nc2cc(Cl)c(Cl)cc2S(=O)(=O)N1O (stereo not drawn)", "8.27%"),
    ("c1ccc(-n2ncc3cccnc32)cc1", "6.65%"),
    ("CCCNC(=O)Nc1ccc(C)cc1C", "1.69%"),
    ("COC(=O)c1ccccc1NCCO", "-8.89%"),
    ("CCCCN1C(=O)CC2CCOC21C (stereo not drawn)", "9.16%"),
    ("CCC(C)c1c(N)n(S(=O)(=O)c2ccc(C)cc2)oc1=O (stereo not drawn)", "12.19%"),
    ("CN1CCC(n2[nH]c(-c3ccccc3)c(Cc3ccccc3)c2=O)CC1", "11.83%"),
    ("C/C(=N\\NC(N)=O)c1ccc(Cl)c(-n2cccc2)c1", "16.93%"),
    ("Cc1oc2c(c(C)nn2-c2ccccc2)c(=O)c1Cl", "-0.13%"),
    ("CCN(CC)CCN1c2ccccc2Sc2ccc3ccccc3c21", "2.63%"),
    ("Cc1cc(S)nc(S)n1", "19.64%"),
    ("CC1(C)CC(Nc2ccc(Nc3ccccc3)cc2)CC(C)(C)N1", "6.04%"),
]

----------
# Test system: Klebsiella pneumoniae
# experimental.conditions: Concentration 20 uM; ASSAY_TEST Inhibition of Bacterial Growth; detection method Absorption (OD600); MEDIA CAMHB; plate type 384well; NBS; CORNING #3640; time 18 hr
# Description: Antibacterial activity against Klebsiella pneumoniae MDR ATCC 70063 (CO-ADD:GN_003); MIC in CAMBH media using NBS plates, by OD(600)
Measured potencies and affinities stand elsewhere.
parameter: Inhibition

# compound, endpoint.value
measured = [
    ("CCC1(C(=O)OC)CCc2c(cc(OC)c3ccccc23)C1=O (stereo not drawn)", "8.69%"),
    ("Cn1ncc2c(Nc3ccc([N+](=O)[O-])cc3)nc(Cl)nc21", "-8.72%"),
    ("CC(=O)Oc1ccc2cc(-c3ccccc3)c(=O)oc2c1", "17.84%"),
    ("CCCN(CCC)CC(=O)N1CC(=O)Nc2ccccc21", "8.75%"),
    ("Cc1ccc(N2CCN(CC(O)COc3cccc(C)c3)CC2)cc1 (stereo not drawn)", "10.88%"),
    ("O=C1C(Br)=Cc2cccc3cccc1c23", "7.6%"),
    ("CC(C)c1cc(C(C)C)n2nc(N)nc2n1", "0.39%"),
    ("C=CCN=C(NC#N)SC", "5.62%"),
    ("CC(O)(c1ccccc1)C(c1ccccc1)C1CCCCN1 (stereo not drawn)", "13.38%"),
    ("CC(C)(C)N=C(S)NC(C)(C)C", "8.8%"),
    ("C=CCc1ccccc1OCC(=O)O", "15.59%"),
    ("CCCSc1nc2c(c(=O)n(C)c(=O)n2C)n1C", "7.42%"),
    ("O=C(O)C1CCC(=O)N1C(=O)OCc1ccccc1 (stereo not drawn)", "12.18%"),
]
